The measured values listed here are drawn from the supplement of paper PMC6555819.

system: THRa homodimer (NR concentration 90 nM); assay: PBM binding z-score (relative to random genomic background probes); higher = stronger binding; sequences stand for … in GC…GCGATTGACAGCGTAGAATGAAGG
# binarize PBM binding z-score: threshold 0.05 inclusive, high side label 1, low side label 0

>  <residue.string>
GCATATAGGTAATACAAGGTGAACGTCCGATTGT

>  <label.value>
label 1

$$$$
>  <residue.string>
GCGACTGGGGCATCCGCAGGTTACCATAACTTAA

>  <label.value>
label 0

$$$$
>  <residue.string>
TCATATAGGTAAAGGTGAAAGTGGAACGATATGA

>  <label.value>
label 0

$$$$
>  <residue.string>
GCGACTGGGACATCAGCAGGTTACCATAACTTAA

>  <label.value>
label 0

$$$$
>  <residue.string>
GCTCGTAGGACAAGGTCAGAGCTTTGTCCGTAGA

>  <label.value>
label 1

$$$$

====

system: PPARg:RXRa (NR concentration 180 nM, RXRa partner concentration 90 nM); assay: PBM binding z-score (relative to random genomic background probes); higher = stronger binding; sequences stand for … in GC…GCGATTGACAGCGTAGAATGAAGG

>  <residue.string>
TCATATAGGTAAAGGTGGAAGTCGAACGATATGA

>  <PBM binding z-score>
2.54

$$$$
>  <residue.string>
GCTAGTTGGTCAGTAAAACGTCACACACCGGTCG

>  <PBM binding z-score>
0.524

$$$$
>  <residue.string>
GCTCGGAGGACCAGGTCAGAGCTTTGTCCGTAGA

>  <PBM binding z-score>
-0.725

$$$$
>  <residue.string>
CCTCGGAGGACAACAGGAGGTCAGATCTGCCAGA

>  <PBM binding z-score>
0.67

$$$$
>  <residue.string>
CCTGTTAGGTCAATGGTCAGCTAAAGCAGCTCGC

>  <PBM binding z-score>
3.07

$$$$
>  <residue.string>
CGACCAAGGTCATAGGAGGTCAGTGAAGACAGAT

>  <PBM binding z-score>
6.04

$$$$
>  <residue.string>
CAAACTAAGTCAAGAGGTCAAAGTCCGCTTCCCG

>  <PBM binding z-score>
4.19

$$$$
>  <residue.string>
CAGCCTATGTCAGGGCCAGTATAGGAGGAACGTT

>  <PBM binding z-score>
0.129

$$$$
>  <residue.string>
ACTAGCAGACCAAGTTTGGGTCACTCAAACAAAG

>  <PBM binding z-score>
-0.0128

$$$$
>  <residue.string>
CGAACTAGGTCAAGTACAGTGAATCTCCGCACGC

>  <PBM binding z-score>
7.57

$$$$
>  <residue.string>
TCATAAAGGTAAAAGGTGAAAGTCGGTGTGGTAA

>  <PBM binding z-score>
6.24

$$$$
>  <residue.string>
ATACCAAGGTGATCGTGAGGTCGTTGGTACTAAC

>  <PBM binding z-score>
0.281

$$$$
>  <residue.string>
AGAACGAGGGCAATGAGTTGATAGAACGGGTGGC

>  <PBM binding z-score>
1.53

$$$$

====

tested on: PPARg homodimer (NR concentration 180 nM); experiment: PBM binding z-score (relative to random genomic background probes); higher = stronger binding; sequences stand for … in GC…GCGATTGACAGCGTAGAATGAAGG
# binarize PBM binding z-score: threshold 1 inclusive, high side T, low side F

>  <residue.string>
CCGACTGGGGCAGAAGGGTTACCATACCATCCGG

>  <label.value>
F

$$$$
>  <residue.string>
ACTAGTTGGTCAGCTGAGGTGACACACAATTCGG

>  <label.value>
F

$$$$
>  <residue.string>
ACATGTAGGTTACATCCGGGTCATTCAGGCTATG

>  <label.value>
T

$$$$
>  <residue.string>
GCTAGTTGGTCAGTAAAAGGTCGCACACCGGTCG

>  <label.value>
T

$$$$
>  <residue.string>
ATCGAAAGGTCGACGAGGCGAGTATACACCGTTT

>  <label.value>
T

$$$$
>  <residue.string>
CAAGACAGGTGAGAAGGTAACTCAGCCTCGATTA

>  <label.value>
F

$$$$
>  <residue.string>
CTCGAAAGGTCGTGCTCAGGCGAGTATACCAAAC

>  <label.value>
F

$$$$
>  <residue.string>
TAGCCTACGTCATGCGGGCCAGTATAGTGTCGGC

>  <label.value>
F

$$$$
>  <residue.string>
TAGCCTAGGTCAGATCAGGCCAGTATACGCTATA

>  <label.value>
F

$$$$
>  <residue.string>
CGTCCAAAGTCAAGGTCAGTGAAAGAGACTCGAA

>  <label.value>
T

$$$$
>  <residue.string>
TCTATTAGTGGAAGGGCAACCGACGAGTCCGTTT

>  <label.value>
F

$$$$
>  <residue.string>
CGTCCAAGGTCAAGGTCGGTGAAAGAGACTCGAA

>  <label.value>
T

$$$$
>  <residue.string>
ATCTCTAGGTAAAGATAGTCCAGTGAATGCAAAT

>  <label.value>
F

$$$$
>  <residue.string>
AGAACGAGGGCAATGAGTTGATAGCCCGGGTGGC

>  <label.value>
F

$$$$
>  <residue.string>
CCTTACGGGTCAAGGTGATAGCACGGGTGGTACG

>  <label.value>
T

$$$$
>  <residue.string>
CTCGAAAGGTCGTGCTCAGGTGGGTATACCAAAC

>  <label.value>
T

$$$$
>  <residue.string>
CCTTACGGGTCACTCCAGGATATAGCATCGGAGT

>  <label.value>
T

$$$$
>  <residue.string>
ACTATTAGTTGACTTAGGGCAACTGATACGACGC

>  <label.value>
F

$$$$
>  <residue.string>
TCAGACAGGTGAAGGTAACTTAGGTACGCAGTCG

>  <label.value>
T

$$$$
>  <residue.string>
GCTGCTAGGTCAGGTTGGTCAGCAAACGGGTACG

>  <label.value>
F

$$$$
>  <residue.string>
ACAGACAGGTGAGTGAAGATAACTCAGCTGGACG

>  <label.value>
F

$$$$
>  <residue.string>
ACTATTAGTTGAAACGAGGGCAACCGATAGGTTG

>  <label.value>
F

$$$$
>  <residue.string>
ATCTCTAGGTAAAGATGGTTCAGTGAATGCAAAT

>  <label.value>
F

$$$$
>  <residue.string>
ATCTCTAGGTAAGCCTCAGTTCAGTGAAGAACGC

>  <label.value>
F

$$$$
>  <residue.string>
CCGACTGGGGCATAAGGTTACCTTAAGCCAGCCC

>  <label.value>
F

$$$$
>  <residue.string>
CCTACTGGGCCAAGGGCATTGATCAGTCAAAGCA

>  <label.value>
F

$$$$
>  <residue.string>
GCTAGTTGGTCAGAAAAAGGTCACACACCGGTCG

>  <label.value>
T

$$$$
>  <residue.string>
TCATATAGGTAAAGCTGAAAGTCGAACGATATGA

>  <label.value>
F

$$$$
>  <residue.string>
CCTAGTTGGTCAAGGACACACACGCTATAGGTAC

>  <label.value>
F

$$$$
>  <residue.string>
ATCTCTAGGTAAAGATAGTTCAGTGGATGCAAAT

>  <label.value>
F

$$$$
>  <residue.string>
CCGACTTGGGCATAAGGTTACCATAAGCCAGCCC

>  <label.value>
F

$$$$
>  <residue.string>
CCTACTGGGCTATTCAGAGGTCATTGATCATATG

>  <label.value>
T

$$$$
>  <residue.string>
CTCGAAAGGTCGGTGGAGGTGAGTATACGGATAA

>  <label.value>
T

$$$$
>  <residue.string>
ATATGTAGGTTAGCTTGGGTCATTCAGACTAGGC

>  <label.value>
T

$$$$
>  <residue.string>
CGAATTAGGTCATTGACAGGACAGTGAATAGTAA

>  <label.value>
T

$$$$
>  <residue.string>
CAAACTAGGTCAAAGAGGTCAAAGTCCGTGCGTA

>  <label.value>
T

$$$$
>  <residue.string>
CTACCAAGGAGAACAAGGTCGTTGATTACTATTC

>  <label.value>
F

$$$$
>  <residue.string>
CCGTACGGGTCACTCCAGGTTATAGCATCGGAGT

>  <label.value>
T

$$$$
>  <residue.string>
ATTAGCAGGCCAAGTTTGGGTCACTCAAACAAAG

>  <label.value>
F

$$$$
>  <residue.string>
CAAATTAGGTCACGAAAGGTCAAAGTCGAATGAC

>  <label.value>
T

$$$$
>  <residue.string>
CCTGCTAGGTCATGGTAAGCTAATCTACAGTATG

>  <label.value>
T

$$$$
>  <residue.string>
ACTATTAGTTGAGACGAGGGGAACCGATAGGTTG

>  <label.value>
F

$$$$
>  <residue.string>
CCTATTAGTTGACCATAAGGGCATCCGAAGCTCG

>  <label.value>
F

$$$$
>  <residue.string>
TTATATAGGTAAAGGTGAAAGTCGAACGATATGA

>  <label.value>
T

$$$$
>  <residue.string>
GCGAGTTGGTCAGTAAAAGGTCACACACCGGTCG

>  <label.value>
T

$$$$
>  <residue.string>
GCTGCTAGGTCAACCGATGGTCAGCTAAAGCTCG

>  <label.value>
T

$$$$
>  <residue.string>
TCATTTAGGTAAAGGTGAAAGTCGAACGATATGA

>  <label.value>
T

$$$$
>  <residue.string>
TCTCGGAGGACACGAATGGTCAGAGCTCGACATC

>  <label.value>
F

$$$$
>  <residue.string>
AGGCAAAGTTCAGGACGAGGTAACGTAAAGCACG

>  <label.value>
T

$$$$
>  <residue.string>
ACTATTAGTTGAGACGATGGCAACCGATAGGTTG

>  <label.value>
F

$$$$
>  <residue.string>
TATATTAGTTGAAGGGCAACCGACGAGTCCGTTT

>  <label.value>
T

$$$$
